TESTED TARGET: Transient receptor potential cation channel subfamily V member 1 (Homo sapiens)
Sequence (Q8NER1 whole entry): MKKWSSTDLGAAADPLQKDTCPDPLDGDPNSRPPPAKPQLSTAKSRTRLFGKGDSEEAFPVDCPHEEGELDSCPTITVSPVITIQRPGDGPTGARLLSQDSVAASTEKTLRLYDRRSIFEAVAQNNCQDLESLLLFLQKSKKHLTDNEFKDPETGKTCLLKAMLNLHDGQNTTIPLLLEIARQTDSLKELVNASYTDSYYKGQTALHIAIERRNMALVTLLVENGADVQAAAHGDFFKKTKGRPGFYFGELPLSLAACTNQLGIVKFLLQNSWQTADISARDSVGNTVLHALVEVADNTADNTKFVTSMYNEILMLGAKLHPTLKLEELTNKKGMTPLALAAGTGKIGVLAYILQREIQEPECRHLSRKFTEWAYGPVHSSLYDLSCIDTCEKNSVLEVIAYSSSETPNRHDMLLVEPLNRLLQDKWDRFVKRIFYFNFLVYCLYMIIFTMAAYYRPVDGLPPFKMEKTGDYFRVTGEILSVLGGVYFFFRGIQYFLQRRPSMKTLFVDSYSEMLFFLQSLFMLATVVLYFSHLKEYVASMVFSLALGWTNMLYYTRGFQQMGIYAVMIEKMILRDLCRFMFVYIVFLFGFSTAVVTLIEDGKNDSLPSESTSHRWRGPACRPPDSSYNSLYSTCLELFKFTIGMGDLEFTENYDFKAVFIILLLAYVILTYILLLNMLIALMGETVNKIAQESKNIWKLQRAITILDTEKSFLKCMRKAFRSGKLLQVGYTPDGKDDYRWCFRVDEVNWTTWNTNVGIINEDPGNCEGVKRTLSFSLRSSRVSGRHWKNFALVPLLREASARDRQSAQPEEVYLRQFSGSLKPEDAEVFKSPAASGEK
ASSAY SUMMARY: Inhibition of low pH activation of human TRPV1
Assay type: functional
OBSERVED PROPERTY: IC50 (nM)

1. CC(C)(C)c1nc2[nH]c(=S)[nH]c(=O)c2cc1-c1ccc(Cl)cc1
2. CC(C)(C)c1nc2[nH]c(=S)[nH]c(=O)c2cc1-c1ccccc1
Prompt: 1 or 2 : whose IC50 is greater? Label of pick, please.
Completion: 2

====

ASSAY SUMMARY: Tmax in rat plasma at 3 mg/kg, po
Format: ADME, organism-based
Parameters: dose 3 mg/kg, route oral
CONDITION INFO: Wistar Han
OBSERVED PROPERTY: Tmax (h)
Use h as the unit, but write only the number.

`Cc1nc2cc(C(C)C)c(-c3ccc(Cl)c(OCC4CC4)c3)cc2c(=O)[nH]1` yielded Tmax of 4
